Tested on: HeLa Kyoto
Test: melting temperature (median over replicates), in situ; higher = more thermally stable
Details: cell cycle stage: mitosis
Hi there, I'd appreciate the recorded melting temperature for every entry that follows.
Please answer in the form of a number followed by its unit of measurement.

Report melting temperature for MQRVSGLLSWTLSRVLWLSGLSEPGAARQPRIMEEKALEVYDLIRTIRDPEKPNTLEELEVVSESCVEVQEINEEEYLVIIRFTPTVPHCSLATLIGLCLRVKLQRCLPFKHKLEIYISEGTHSTEEDINKQINDKERVAAAMENPNLREIVEQCVLEPD [FAM96A] please.
55.3 °C

Repeat with MAAVVALSLRRRLPATTLGGACLQASRGAQTAAATAPRIKKFAIYRWDPDKAGDKPHMQTYEVDLNKCGPMVLDALIKIKNEVDSTLTFRRSCREGICGSCAMNINGGNTLACTRRIDTNLNKVSKIYPLPHMYVIKDLVPDLSNFYAQYKSIEPYLKKKDESQEGKQQYLQSIEEREKLDGLYECILCACCSTSCPSYWWNGDKYLGPAVLMQAYRWMIDSRDDFTEERLAKLQDPFSLYRCHTIMNCTRTCPKGLNPGKAIAEIKKMMATYKEKKASV [SDHB]
56.3 °C

---

Test system: HeLa Kyoto;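 note: HeLa Kyoto cells synchronized by double thymidine or nocodazole block, proteins quantified by TMT10plex mass spectrometry, three independent biological replicates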
Assay: melting temperature (median over replicates), in situ; higher = more thermally stable
Settings: cell cycle stage: mitosis
Hi there, I'd appreciate the recorded melting temperature for every entry that follows.
Give the value, in units of °C, as a plain number.

Report melting temperature for MASQLQNRLRSALALVTGAGSGIGRAVSVRLAGEGATVAACDLDRAAAQETVRLLGGPGSKEGPPRGNHAAFQADVSEARAARCLLEQVQACFSRPPSVVVSCAGITQDEFLLHMSEDDWDKVIAVNLKGTFLVTQAAAQALVSNGCRGSIINISSIVGKVGNVGQTNYAASKAGVIGLTQTAARELGRHGIRCNSVLPGFIATPMTQKVPQKVVDKITEMIPMGHLGDPEDVADVVAFLASEDSGYITGTSVEVTGGLFM [HSD17B8] please.
56.3

Repeat with MPKRKVTFQGVGDEEDEDEIIVPKKKLVDPVAGSGGPGSRFKGKHSLDSDEEEDDDDGGSSKYDILASEDVEGQEAATLPSEGGVRITPFNLQEEMEEGHFDADGNYFLNRDAQIRDSWLDNIDWVKIRERPPGQRQASDSEEEDSLGQTSMSAQALLEGLLELLLPRETVAGALRRLGARGGGKGRKGPGQPSSPQRLDRLSGLADQMVARGNLGVYQETRERLAMRLKGLGCQTLGPHNPTPPPSLDMFAEELAEEELETPTPTQRGEAESRGDGLVDVMWEYKWENTGDAELYGPFTSAQMQTWVSEGYFPDGVYCRKLDPPGGQFYNSKRIDFDLYT [CD2BP2]
51.2

Repeat with MSGSVLFTAGERWRCFLTPSRSSLYWALHNFCCRKKSTTPKKITPNVTFCDENAKEPENALDKLFSSEQQASILHVLNTASTKELEAFRLLRGRRSINIVEHRENFGPFQNLESLMNVPLFKYKSTVQVCNSILCPKTGREKRKSPENRFLRKLLKPDIERERLKAVNSIISIVFGTRRIAWAHLDRKLTVLDWQQSDRWSLMRGIYSSSVYLEEISSIISKMPKADFYVLEKTGLSIQNSSLFPILLHFHIMEAMLYALLNKTFAQDGQHQVLSMNRNAVGKHFELMIGDSRTSGKELVKQFLFDSILKADPRVFFPSDKIVHYRQMFLSTELQRVEELYDSLLQAIAFYELAVFDSQP [TEFM]
49.1

Repeat with MVEDELALFDKSINEFWNKFKSTDTSCQMAGLRDTYKDSIKAFAEKLSVKLKEEERMVEMFLEYQNQISRQNKLIQEKKDNLLKLIAEVKGKKQELEVLTANIQDLKEEYSRKKETISTANKANAERLKRLQKSADLYKDRLGLEIRKIYGEKLQFIFTNIDPKNPESPFMFSLHLNEARDYEVSDSAPHLEGLAEFQENVRKTNNFSAFLANVRKAFTATVYN [SPC25]
49.6

Repeat with MGDKIWLPFPVLLLAALPPVLLPGAAGFTPSLDSDFTFTLPAGQKECFYQPMPLKASLEIEYQVLDGAGLDIDFHLASPEGKTLVFEQRKSDGVHTVETEVGDYMFCFDNTFSTISEKVIFFELILDNMGEQAQEQEDWKKYITGTDILDMKLEDILESINSIKSRLSKSGHIQTLLRAFEARDRNIQESNFDRVNFWSMVNLVVMVVVSAIQVYMLKSLFEDKRKSRT [TMED5]
55.5

Repeat with MAEQATKSVLFVCLGNICRSPIAEAVFRKLVTDQNISENWRVDSAATSGYEIGNPPDYRGQSCMKRHGIPMSHVARQITKEDFATFDYILCMDESNLRDLNRKSNQVKTCKAKIELLGSYDPQKQLIIEDPYYGNDSDFETVYQQCVRCCRAFLEKAH [ACP1]
51
